System: Saccharomyces cerevisiae ABC16-Green Monster
assay.setup: 18 h; 30 °C; YPD
Strictly below 6 µM in IC50 growth inhibition: True. Otherwise: False.

Sample answers from the record:
[
  {
    "compound": "Cc1nc([P+](c2ccccc2)(c2ccccc2)c2ccccc2)c(N2CCCCC2)o1",
    "answer.label": "False"
  },
  {
    "compound": "CNC(=O)c1cc(Oc2ccc(NC(=O)Nc3ccc(Cl)c(C(F)(F)F)c3)cc2)ccn1",
    "answer.label": "True"
  },
  {
    "compound": "Clc1ccc(COC(Cn2ccnc2)c2ccc(Cl)cc2Cl)c(Cl)c1 (stereo not given)",
    "answer.label": "True"
  },
  {
    "compound": "N#C/C(=N\\Nc1cc(C(F)(F)F)cc(C(F)(F)F)c1)S(=O)(=O)c1cccs1",
    "answer.label": "False"
  },
  {
    "compound": "Cl.c1ccc(C2CCCC2NC2=NCCCCCCCCCCC2)cc1 (stereo not given)",
    "answer.label": "False"
  }
]

Prompt line: Report whether reported IC50 growth inhibition is lower than 6 µM (strictly) for CC(=O)OC1c2nc(cs2)C(=O)OC(CCCC(C)(Cl)Cl)C(C)C(=O)OC(C(C)(C)O)c2nc(cs2)C(=O)OC1(C)C (stereo not given)
Response line: True

Prompt line: Lab log: compare recorded IC50 growth inhibition with 6 µM; is it strictly lower for "CC(=O)N(C1=C(N2CCOCC2)C(=O)c2ccccc2C1=O)c1ccc(I)cc1" ?
Response line: False

Prompt line: # strict comparison: is reported IC50 growth inhibition < 6 µM? input = NC(CC(=O)c1ccc(Cl)cc1Cl)C(Cl)(Cl)Cl (stereo not given)
Response line: False

Prompt line: Is 6 µM strictly greater than the compound's reported IC50 growth inhibition? compound: COC1=CC(C)=CC(C)C(O)C(C)CC(C)=CC=CC(OC)C(C(C)C(O)C(C)C2(O)CC(O)C(C)C(C(C)C)O2)OC1=O (stereo not given)
Response line: True

Prompt line: Record "CNC(=O)c1ccccc1Nc1nc(Nc2ccc3c(c2OC)CCC[C@H](N2CCN(CCO)CC2)C3)ncc1Cl" : is its IC50 growth inhibition strictly below 6 µM?
Response line: False

Prompt line: Is 6 µM strictly greater than the compound's reported IC50 growth inhibition? compound: CCC1(O)CC2CN(CCc3c([nH]c4ccccc34)C(C(=O)OC)(c3cc4c(cc3OC)N(C)C3C(O)(C(=O)OC)C(OC(C)=O)C5(CC)C=CCN6CCC43C65)C2)C1 (stereo not given)
Response line: False

Prompt line: Problem: For the compound OC(CNC1CCCCC1)Cn1c2ccc(I)cc2c2cc(I)ccc21 (stereo not given) , is IC50 growth inhibition under 6 µM?
Response line: True

Prompt line: Just wondering, is IC50 growth inhibition of "C=C1[C@@H](C)[C@H]2[C@H](Cc3ccccc3)NC(=O)[C@]23OC(=O)/C=C/[C@H](O)CCC[C@@H](C)C/C=C/[C@H]3[C@@H]1O" below 6 µM?
Response line: False

---

// reported IC50 growth inhibition per item
Test system: Saccharomyces cerevisiae ABC16-Green Monster
assay.setup: 18 h; 30 °C; YPD
Give just the number in µM; leave the unit off.

Answered examples (6):
[
  {
    "molecule": "c1ccc(-c2cc(N3CCCCC3)c3ccccc3n2)nc1",
    "unit.label": "µM",
    "result.number": 42.9
  },
  {
    "molecule": "COc1ccc(C2CC(c3cccs3)=NN2C(=O)c2ccco2)cc1OC (stereo unspecified)",
    "unit.label": "µM",
    "result.number": 83.6
  },
  {
    "molecule": "O=C(Nc1ccc(C(F)(F)F)c(C(F)(F)F)c1)c1cc(Cl)ccc1O",
    "unit.label": "µM",
    "result.number": 5.64
  },
  {
    "molecule": "O=C(Nc1ccc2c(c1)B(O)OC2)c1ccccc1C(F)(F)F",
    "unit.label": "µM",
    "result.number": 1.72
  },
  {
    "molecule": "OC(CNCC1CCCO1)Cn1c2ccc(Cl)cc2c2cc(Cl)ccc21 (stereo unspecified)",
    "unit.label": "µM",
    "result.number": 4.91
  },
  {
    "molecule": "Cc1cc(C(=O)NNC(=O)c2c(C)nc3ccccn23)c2nc3n(c2n1)CCCCC3",
    "unit.label": "µM",
    "result.number": 41.8
  }
]

Would you kindly look at the next entry?
Prompt line: Recorded IC50 growth inhibition of "Cc1c(C(=O)Nc2ccccc2O)cnn1-c1cccc(C(F)(F)F)c1" , please.
Response line: 23.9

Value source: the supplement of paper PMC8837787
